# Target or test system: PfCyRPA (Plasmodium falciparum)
# Measurement description: biochemical
pKd: −log10 of the molar value. Structures can show the parent of a compound that is named as a salt.
Reported metric: pKd

[[record]]
compound = "O=C1CC2(CCCC2)CC(=O)N1CCCCN1CCN(c2ncccn2)CC1 [Buspirone hydrochloride]"
reported_metric = "pKd"
measured = 7.47

[[record]]
compound = "COc1ccc(CCC(=O)c2c(O)cc(O[C@@H]3O[C@H](CO)[C@@H](O)[C@H](O)[C@H]3O[C@@H]3O[C@@H](C)[C@H](O)[C@@H](O)[C@H]3O)cc2O)cc1O [Neohesperidin dihydrochalcone]"
reported_metric = "pKd"
measured = 7.61

[[record]]
compound = "CCC(C)[C@H]1O[C@]2(CC[C@@H]1C)C[C@@H]1C[C@@H](C/C=C(\\C)[C@@H](O[C@H]3C[C@H](OC)[C@@H](O[C@H]4C[C@@H](OC)[C@H](O)[C@@H](C)O4)[C@H](C)O3)[C@@H](C)/C=C/C=C3\\CO[C@@H]4[C@H](O)C(C)=C[C@@H](C(=O)O1)[C@]34O)O2 (stereo partly drawn)"
reported_metric = "pKd"
measured = 7.03


---

# Target or test system: PfCyRPA (Plasmodium falciparum)
# Measurement description: biochemical
pKd: −log10 of the molar value.
Some compounds, each annotated with its measured pKd.
Reported metric: pKd

[[record]]
compound = "On1ccccc1=S [1-Hydroxy-2(1H)-pyridinethione]"
measured = 3.77

[[record]]
compound = "CCC(C)(C)C(=O)O[C@H]1C[C@@H](C)C=C2C=C[C@H](C)[C@H](CC[C@@H]3C[C@@H](O)CC(=O)O3)[C@H]21"
measured = 7.50

[[record]]
compound = "CO/N=C1\\C[C@]2(C[C@@H]3C[C@@H](C/C=C(\\C)C[C@@H](C)/C=C/C=C4\\CO[C@@H]5[C@H](O)C(C)=C[C@@H](C(=O)O3)[C@]45O)O2)O[C@H](/C(C)=C/C(C)C)[C@H]1C"
measured = 4.87


---

Readings of Kd for the listed compounds
# Target or test system: PfCyRPA (Plasmodium falciparum, UniProt Q8IFM8)
# Sequence (Q8IFM8 29-362): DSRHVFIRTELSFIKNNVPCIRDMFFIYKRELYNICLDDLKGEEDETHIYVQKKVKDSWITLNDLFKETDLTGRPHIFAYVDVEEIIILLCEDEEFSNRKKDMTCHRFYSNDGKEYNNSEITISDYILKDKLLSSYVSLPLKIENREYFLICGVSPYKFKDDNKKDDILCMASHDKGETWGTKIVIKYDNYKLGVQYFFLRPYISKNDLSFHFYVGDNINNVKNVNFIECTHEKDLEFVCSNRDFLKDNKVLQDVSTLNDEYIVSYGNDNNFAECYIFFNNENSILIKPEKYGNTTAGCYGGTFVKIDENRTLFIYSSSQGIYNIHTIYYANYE
# Experimental context: Table 3, PfCyRPA
Reported metric: Kd (µM)

[[record]]
compound = "O=S(=O)([O-])[O-].[Zn+2] [Zinc, Zinc sulfate]"
target_or_test_system = "PfCyRPA (Plasmodium falciparum, UniProt Q8IFM8)"
reported_metric = "Kd"
measured = 546

[[record]]
compound = "[O-][n+]1ccccc1S [Sodium Pyrithione]"
target_or_test_system = "PfCyRPA (Plasmodium falciparum, UniProt Q8IFM8)"
reported_metric = "Kd"
measured = 122


---

# Target or test system: New Delhi metallo-beta-lactamase 2 (NDM2) (Klebsiella pneumoniae, UniProt C7C422, P28A)
# Sequence (C7C422 29-270 P28A (numbered from the first residue shown)): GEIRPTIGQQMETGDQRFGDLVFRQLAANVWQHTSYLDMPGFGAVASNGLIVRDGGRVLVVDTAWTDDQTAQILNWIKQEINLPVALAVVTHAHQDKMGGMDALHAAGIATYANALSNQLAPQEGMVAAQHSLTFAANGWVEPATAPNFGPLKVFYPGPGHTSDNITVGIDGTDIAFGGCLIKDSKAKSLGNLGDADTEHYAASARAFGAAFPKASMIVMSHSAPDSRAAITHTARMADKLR
# Experimental context: read-out: NDM2 KD; Table 9
pKd: −log10 of the molar value.
Reported metric: pKd

[[record]]
molecule = "[O-][n+]1ccccc1S [Sodium Pyrithione]"
target_or_test_system = "New Delhi metallo-beta-lactamase 2 (NDM2) (Klebsiella pneumoniae, UniProt C7C422, P28A)"
measured = 3.10

[[record]]
molecule = "O=S(=O)([O-])[O-].[Zn+2] [Zinc, Zinc sulfate]"
target_or_test_system = "New Delhi metallo-beta-lactamase 2 (NDM2) (Klebsiella pneumoniae, UniProt C7C422, P28A)"
measured = 3.50


---

pKd for assorted molecules
# Target or test system: PfCyRPA (Plasmodium falciparum)
# Experimental context: read-out: CyRPA KD; Table 9
pKd: −log10 of the molar value.
Reported metric: pKd

[[record]]
molecule = "[O-][n+]1ccccc1S [Sodium Pyrithione]"
measured = 3.91

[[record]]
molecule = "O=S(=O)([O-])[O-].[Zn+2] [Zinc, Zinc sulfate]"
measured = 3.26


---

# Target or test system: New Delhi metallo-beta-lactamase 2 (NDM2) (Klebsiella pneumoniae, UniProt C7C422, P28A)
# Measurement description: biochemical
Reported metric: Kd (µM)

[[record]]
molecule = "On1ccccc1=S [1-Hydroxy-2(1H)-pyridinethione]"
target_or_test_system = "New Delhi metallo-beta-lactamase 2 (NDM2) (Klebsiella pneumoniae, UniProt C7C422, P28A)"
measured = 894


Entry source: patent US20260256822A1
